System: Candida krusei ATCC 14243
Assay: MIC determination (broth micro-dilution)
Assay type: cell-based
Conditions: Pichia kudriavzevii, ATCC14243
MEASUREMENT_TYPE: MIC

Worked cases, answers included:
[[record]]
molecule = "COc1cc(NC(C)CCCNC(=O)NC(C(=O)NC(c2ccccc2)c2ccc(Cl)cc2)c2ccc(Cl)cc2)c2ncccc2c1 (stereo not shown)"
observed_measurement = "> 100 µg/mL"

[[record]]
molecule = "COc1cc(NC(C)CCCNC(=O)NC(CC(C)C)C(=O)NC(c2ccccc2)c2ccccc2)c2ncccc2c1 (stereo not shown)"
observed_measurement = "> 100 µg/mL"

[[record]]
molecule = "C[C@@H]1[C@H](O)[C@@H](C)/C=C/C=C/C=C/C=C/C=C/C=C/C=C/[C@H](O[C@@H]2O[C@H](C)[C@@H](O)[C@H](N)[C@@H]2O)C[C@@H]2O[C@](O)(C[C@@H](O)C[C@@H](O)[C@H](O)CC[C@@H](O)C[C@@H](O)CC(=O)O[C@H]1C)C[C@H](O)[C@H]2C(=O)O [Amph, amphotericin B, reference compound]"
observed_measurement = "0.5 µg/mL"


Note: attention shifts to another entry.
Record COc1cc(NC(C)CCCNC(=O)NC(C(=O)N(C)C(c2ccccc2)c2ccccc2)c2ccccc2)c2ncccc2c1 (stereo not shown) , field MIC: > 100 µg/mL

Where these numbers come from: paper PMC6021035
